Target: Tlp10^LBD H193A (Campylobacter jejuni, UniProt Q0PCA6, H193A)
Assay: biochemical
Type: binding, C. jejuni
pKd: −log10 of the molar value.
Readings of pKd for the listed compounds
assay.metric: pKd

[[record]]
compound = "CC(=O)N[C@H]1[C@H]([C@H](O)[C@H](O)CO)OC(O)(C(=O)O)C[C@@H]1O (stereo partly drawn) [sialic acid]"
assay_metric = "pKd"
readout_value = 4.69

[[record]]
compound = "O=C(O)CC(O)C(=O)O (stereo not drawn) [malate]"
assay_metric = "pKd"
readout_value = 3.79

[[record]]
compound = "N[C@@H](CC(=O)O)C(=O)O [aspartate]"
assay_metric = "pKd"
readout_value = 4.51

[[record]]
compound = "c1ncc2nc[nH]c2n1 [purine]"
assay_metric = "pKd"
readout_value = 4.72

[[record]]
compound = "OC[C@H]1OC(O)[C@@H](O)[C@@H](O)[C@@H]1O (stereo partly drawn) [mannose]"
assay_metric = "pKd"
readout_value = 4.49

[[record]]
compound = "Cc1ncc(C[n+]2csc(CCO)c2C)c(N)n1 [thiamine]"
assay_metric = "pKd"
readout_value = 4.30

[[record]]
compound = "C[C@H](O)[C@@H](O)[C@@H](O)[C@H](O)C=O [fucose]"
assay_metric = "pKd"
readout_value = 4.55

[[record]]
compound = "N=C(N)NCCC[C@H](N)C(=O)O [arginine]"
assay_metric = "pKd"
readout_value = 4.54

[[record]]
compound = "CC[C@H](C)[C@H](N)C(=O)O [isoleucine]"
assay_metric = "pKd"
readout_value = 4.51


These entries and their values trace back to paper PMC8112392.
